Target: ACCase
Conditions: read-out: I50; R biotype, both substitutions found, zygosity not given; stated gain; pH 8.3, 34 °C, 1.5 mM ATP, 5 mM MgCl2, 15 mM NaH14CO3, 5 mM acetyl-CoA; table prints the butyl ester, methods list the acid
measuredQuantity: pIC50
Answers are plain numbers, as −log10 of the molar value.

Q: Using the record for "C[C@@H](Oc1ccc(Oc2ccc(C#N)cc2F)cc1)C(=O)O" , report its pIC50.
A: 4.11

###

Target: ACCase
Details: read-out: I50; R biotype, both substitutions found, zygosity not given; stated gain; pH 8.3, 34 °C, 1.5 mM ATP, 5 mM MgCl2, 15 mM NaH14CO3, 5 mM acetyl-CoA; table prints the ethyl ester, methods state the acid
measuredQuantity: pIC50
Numbers only, as −log10 of the molar value.

Q: Give ACCase pIC50 for CC(Oc1ccc(Oc2nc3ccc(Cl)cc3o2)cc1)C(=O)O (stereo not shown)
A: 5.11

###

Please go through the items and note down their IC50.
Molecular target: ACCase
Settings: read-out: I50; R biotype, both substitutions found, zygosity not given; stated gain; pH 8.3, 34 °C, 1.5 mM ATP, 5 mM MgCl2, 15 mM NaH14CO3, 5 mM acetyl-CoA
Excerpt: ATP-dependent NaH14CO3 incorporation into acid-stable product on ACCase
Could you give the number and then its unit, please?

In the examples that follow, each entry is paired with its recorded IC50.
CCc1cc(C)cc(CC)c1-c1c(OC(=O)C(C)(C)C)n2n(c1=O)CCOCC2 [pinoxaden]: 9.13 µM
CCCC(=NOCC)C1=C(O)CC(CC(C)SCC)CC1=O (stereo not drawn) [sethoxydim]: 1500 µM

Here's the next entry for you.
Q: Give ACCase IC50 for CCON=C(CC)C1=C(O)CC(c2c(C)cc(C)cc2C)CC1=O (stereo not drawn) [tralkoxydim]
A: 8.81 µM

###

Target: ACCase
Conditions: read-out: I50; R biotype, both substitutions found, zygosity not given; stated gain; pH 8.3, 34 °C, 1.5 mM ATP, 5 mM MgCl2, 15 mM NaH14CO3, 5 mM acetyl-CoA; table prints the methyl ester, methods list the acid
measuredQuantity: pIC50
Numbers only, as −log10 of the molar value.

Q: Using the record for CC(Oc1ccc(Oc2ccc(Cl)cc2Cl)cc1)C(=O)O (stereo not shown) [diclofop acid] , report its pIC50.
A: 5.15

Source listed as paper PMC4613257.
